The reported numbers originate from PubChem BioAssay AID588639.

Field: IC50. Provide a value for each of the compounds that follow.
- assayed_target: Alkaline phosphatase, tissue-nonspecific isozyme (Homo sapiens) (UniProt P05186)
- Sequence (P05186 whole entry, looked up): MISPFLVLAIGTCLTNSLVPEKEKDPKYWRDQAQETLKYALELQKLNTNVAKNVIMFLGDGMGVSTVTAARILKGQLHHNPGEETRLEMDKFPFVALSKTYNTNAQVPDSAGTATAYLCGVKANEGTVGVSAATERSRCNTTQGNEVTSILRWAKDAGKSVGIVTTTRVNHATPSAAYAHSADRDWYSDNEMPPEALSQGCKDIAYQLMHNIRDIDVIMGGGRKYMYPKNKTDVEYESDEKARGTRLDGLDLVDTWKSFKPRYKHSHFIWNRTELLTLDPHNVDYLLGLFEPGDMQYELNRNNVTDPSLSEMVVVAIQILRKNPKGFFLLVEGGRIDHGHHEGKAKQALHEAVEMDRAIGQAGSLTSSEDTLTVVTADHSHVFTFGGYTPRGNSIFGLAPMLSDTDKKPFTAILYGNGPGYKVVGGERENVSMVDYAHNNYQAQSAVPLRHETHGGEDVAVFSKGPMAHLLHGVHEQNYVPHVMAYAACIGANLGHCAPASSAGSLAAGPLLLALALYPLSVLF
- assay_remarks: human TNAP enzyme inhibitors, SAR follow-up, selectivity assay for mouse IAP inhibitor project, biochemical, set 2 (AID 588639)
- condition_context: purified human TNAP enzyme activity, counter-screen for mouse IAP
Calls of active or inactive are those of the source. How the calls were made is not given here.

Would you kindly share the measured IC50 for COc1ccc(CNC(=O)CNS(=O)(=O)c2ccc3[nH]c(=O)oc3c2)cc1 ?
> 100 µM (inactive)

Would you kindly share the measured IC50 for CCOc1cc(C(=O)N/N=C/c2c(F)cccc2Cl)cc(OCC)c1OCC ?
> 100 µM (inactive)

Would you kindly share the measured IC50 for Cc1ccccc1CNC(=O)CCCNS(=O)(=O)c1ccc2[nH]c(=O)oc2c1 ?
> 100 µM (inactive)

Would you kindly share the measured IC50 for COc1ccc(CNC(=O)CCNS(=O)(=O)c2ccc3c(c2)CCC3)c(OC)c1 ?
> 100 µM (inactive)

Would you kindly share the measured IC50 for COc1ccccc1CNC(=O)CCNS(=O)(=O)c1ccc2[nH]c(=O)oc2c1 ?
> 100 µM (inactive)

Would you kindly share the measured IC50 for O=C(N/N=C/c1ccccc1C(F)(F)F)c1cc(O)c(O)c(O)c1 ?
> 100 µM (inactive)

Would you kindly share the measured IC50 for CSc1cccc(NC(=O)C2CCCN(S(=O)(=O)c3ccc4c(c3)oc(=O)n4C)C2)c1 (stereo unspecified) ?
> 100 µM (inactive)

Would you kindly share the measured IC50 for O=C(NN=Cc1ccccc1F)c1ccc(O)cc1 ?
> 100 µM (inactive)

Would you kindly share the measured IC50 for O=C(CNS(=O)(=O)c1ccc2[nH]c(=O)oc2c1)NCCc1ccc2c(c1)OCO2 ?
> 100 µM (inactive)

Would you kindly share the measured IC50 for COc1cccc(NC(=O)CCNS(=O)(=O)c2ccc3c(c2)oc(=O)n3C)c1 ?
> 100 µM (inactive)

Would you kindly share the measured IC50 for O=C(NCc1ccc(F)cc1)C1CCCN(S(=O)(=O)c2ccc3[nH]c(=O)oc3c2)C1 (stereo unspecified) ?
> 100 µM (inactive)

Would you kindly share the measured IC50 for O=C(CCS(=O)(=O)Nc1ccc2[nH]c(=O)oc2c1)NCc1cccc(Cl)c1 ?
> 100 µM (inactive)

Would you kindly share the measured IC50 for C/C(=N\NC(=O)c1cc(O)c(O)c(O)c1)c1ccc(O)cc1O ?
> 100 µM (inactive)

Would you kindly share the measured IC50 for Cc1ccc(NC(=O)CCNS(=O)(=O)c2ccc3c(c2)oc(=O)n3C)cc1 ?
> 100 µM (inactive)

Would you kindly share the measured IC50 for COc1cc(/C=N/NC(=O)c2cc(O)c(O)c(O)c2)ccc1O ?
> 100 µM (inactive)

Would you kindly share the measured IC50 for O=C(N/N=C/c1ccccc1F)c1ccccc1OCc1ccccc1 ?
> 100 µM (inactive)

Would you kindly share the measured IC50 for COc1ccccc1CNC(=O)CCCNS(=O)(=O)c1ccc2[nH]c(=O)oc2c1 ?
> 100 µM (inactive)

Would you kindly share the measured IC50 for Cc1ccccc1CNC(=O)C1CCCN(S(=O)(=O)c2ccc3[nH]c(=O)oc3c2)C1 (stereo unspecified) ?
> 100 µM (inactive)

Would you kindly share the measured IC50 for CCOc1cc(C(=O)N/N=C/c2ccccc2F)cc(OCC)c1OCC ?
> 100 µM (inactive)

Would you kindly share the measured IC50 for COc1cccc(CNS(=O)(=O)c2ccc3[nH]c(=O)oc3c2)c1 ?
> 100 µM (inactive)

Would you kindly share the measured IC50 for COc1cc(C(=O)N/N=C/c2c(F)cccc2Cl)cc(OC)c1OC ?
> 100 µM (inactive)
